- System: ACHN renal
- PROCEDURE_SUMMARY: NCI tumour cell line growth inhibition, 48 h
MEASURE_NAME: TGI

# per-item lookup of TGI; items listed below
1. c1ccc(P(CCP(CCP(c2ccccc2)c2ccccc2)c2ccccc2)CCP(c2ccccc2)c2ccccc2)cc1 (stereo not given)
2. N=C(N)c1ccc(COc2ccccc2OCc2ccc(C(=N)N)cc2)cc1
3. NC(=O)NC(=O)c1cccc(NC(=O)CF)c1
4. COc1cc(/C=C/C(=O)c2sc(NNC(C)=O)nc2C)ccc1O
5. CC(C)C[C@H](NC(=O)[C@@H](O)[C@H](N)Cc1ccc([N+](=O)[O-])cc1)C(=O)O
6. CN(C(=O)c1ccncc1)c1ccccc1
7. O=C1[C@@H]2C[C@@H](O)CN2C(=O)c2ccccc2N1CCCO
8. Cn1cnc(N2CCCC2)c(C#N)c1=O

Result:
> 10 µM
> 100 µM
> 100 µM
> 100 µM
> 25 µM
> 100 µM
> 100 µM
> 100 µM

# return TGI for each item in the list
1. CC(C)(CO)NC(=O)Nc1c(C(F)(F)F)cc(-c2ccccc2)[nH]c1=O
2. O=C(O)CC1(CC(=O)O)Nc2ccccc2SC1=O
3. CC12c3c4cc(Br)cc3Oc3cc(Br)cc(c31)Oc1cc(Br)cc(c12)O4

Result:
1: > 100 µM; 2: > 100 µM; 3: > 100 µM
